Listed compounds paired with reported TGI
System: OVCAR-3 ovarian
Assay: NCI tumour cell line growth inhibition, 48 h

Use these answered entries as a reference point.
- compound: "CCCN(CCCc1ccccc1)CCc1ccc2[nH]c(=S)[nH]c2c1"
  TGI: "> 100 µM"
- compound: "CCCNC(=O)CCC(C)C1CCC2C3C(C[C@H](OC(C)=O)[C@]12C)[C@@]1(C)CCC2(C[C@H]1C[C@H]3OC(C)=O)OOC1(CC[C@]3(C)C4C[C@H](OC(C)=O)[C@]5(C)C(C(C)CCC(=O)NCCC)CCC5C4[C@H](OC(C)=O)C[C@@H]3C1)OO2 (some centres undefined)"
  TGI: "> 100 µM"
- compound: "CC(=O)C1=C(C)N(c2ccc(C)cc2)C2(O)C=CC(=O)C3C(=O)N(c4ccccc4)C(=O)C132 (centres undefined)"
  TGI: "> 100 µM"

Now consider a different compound.
Req: Can you share its TGI? I mean this compound: C[C@]12CCC(=O)C=C1CC[C@@H]1C2CC[C@]2(C)Nc3c(cnn3-c3ccccc3)CC12 (some centres undefined)
Resp: > 10 µM

----------
Test system: SR leukemia
Assay: NCI tumour cell line growth inhibition, 48 h
Listed compounds paired with reported TGI

Use these answered entries as a reference point.
- compound: "COc1cc2c(cc1O)CC[C@@H]1[C@@H]2CC[C@]2(C)[C@@H](OCCN(C)C)CC[C@@H]12"
  reported_value: "0.894 µM"
- compound: "COC(=O)C1CN=CN1CCc1ccccc1 (stereo not given)"
  reported_value: "> 100 µM"
- compound: "CCOc1ccc(/C(Cl)=C(\\C=O)c2ccc(OC)c(OC)c2)cc1OCC"
  reported_value: "50.8 µM"
- compound: "CC1OC(OC2C[C@](O)(C(=O)CF)Cc3c(O)c4c(c(O)c32)C(=O)c2ccccc2C4=O)CC(N)C1O (stereo not given in full)"
  reported_value: "0.0708 µM"
- compound: "COc1ccc(-n2cnc3c2NC(C)(C)N=C3C(N)=O)c(OC)c1"
  reported_value: "> 100 µM"
- compound: "O=C(c1cccs1)N(C(=S)OC12CC3CC(CC(C3)C1)C2)c1ccccc1"
  reported_value: "> 100 µM"
- compound: "COc1cccc(-c2nn(-c3ccccc3)cc2-c2ccnc(NCCCNC(=O)Nc3ccc(Cl)c(Cl)c3)c2)c1"
  reported_value: "4.62 µM"
- compound: "Clc1ccc(N=Nc2nc3ccccc3nc2N=Nc2ccc(Cl)cc2Cl)c(Cl)c1"
  reported_value: "> 100 µM"
- compound: "C=CCC(N(C)C(=O)[C@H](Cc1ccccc1)NC(=O)OCc1ccccc1)P(=O)(Oc1ccccc1)Oc1ccccc1 (stereo not given in full)"
  reported_value: "> 100 µM"
- compound: "COc1ccc(C(=O)c2sc(Nc3ccc(Cl)cc3)nc2N)cc1"
  reported_value: "> 45.2 µM"

Req: Can you share its TGI? I mean this compound: S=C1N(/N=C/c2c3ccccc3cc3ccccc23)C(=Nc2ccccc2)C(=Nc2ccccc2)N1c1ccccc1
Resp: > 100 µM

Req: Can you share its TGI? I mean this compound: O=C(Nc1ccncc1)C(=O)c1cn(Cc2ccc(Cl)cc2)c2ccccc12
Resp: > 100 µM

Req: Can you share its TGI? I mean this compound: Nc1cccc(/C=C/C(=O)N2CCN(CCOC(c3ccccc3)c3ccccc3)CC2)c1
Resp: 30.9 µM

Req: Can you share its TGI? I mean this compound: CNC(=O)c1cccc2cc(Oc3ccnc4cc(OCC5(N)CC5)c(OC)cc34)ccc12
Resp: 10.6 µM

Req: Can you share its TGI? I mean this compound: COc1cc2oc3cc(=O)cc4oc(-c5ccccc5)cc(c2c2c1CCC(c1ccccc1)O2)c43 (stereo not given)
Resp: > 100 µM

Req: Can you share its TGI? I mean this compound: O=C(/C=C/c1ccc(O)c(-c2cc(C(=O)/C=C/c3ccc(O)cc3)c(O)cc2O)c1)c1ccc(O)cc1O
Resp: 28.4 µM

Req: Can you share its TGI? I mean this compound: CCOC(=O)C(NC(=O)c1ccco1)(Nc1nc2ccc(OCC)cc2s1)C(F)(F)F (stereo not given)
Resp: 88.5 µM

Req: Can you share its TGI? I mean this compound: CN1CCN(c2ncc3c(n2)sc2c(=O)n(-c4ccccc4)cnc23)CC1
Resp: > 100 µM

Req: Can you share its TGI? I mean this compound: NC(=O)c1ccccc1Nc1ccc2nnc(-c3ccncc3)n2n1
Resp: 14.6 µM

Req: Can you share its TGI? I mean this compound: CC1=CC(=O)c2ccccc2C1=O
Resp: > 29 µM

Req: Can you share its TGI? I mean this compound: Cc1cn(C2CC(O)C(COC(=O)NCCC(F)(F)C(F)(F)C(F)(F)C(F)(F)F)O2)c(=O)[nH]c1=O (stereo not given)
Resp: > 100 µM

Req: Can you share its TGI? I mean this compound: Cc1cc(NCCN(C(C)C)C(C)C)nc(/N=C(\N)Nc2ccc(Cl)c(C(F)(F)F)c2)n1
Resp: 0.425 µM

Req: Can you share its TGI? I mean this compound: C=CCC1(O)c2ccccc2C(=O)c2c(NCCN(CC(=O)OCC)CC(=O)OCC)cccc21 (stereo not given)
Resp: > 100 µM

Req: Can you share its TGI? I mean this compound: CC1CC2OC(=O)C(C)C2CC2(C)C(OC3OC(CO)C(O)C(O)C3O)OCCC12 (stereo not given)
Resp: > 100 µM

Req: Can you share its TGI? I mean this compound: CC1CN(c2ccc(Cl)cc2)CC(C)OC(=O)O1 (stereo not given)
Resp: > 100 µM

Req: Can you share its TGI? I mean this compound: C=CCc1cccc2cc(C(=O)Nc3ccccc3)c(=N)oc12
Resp: > 100 µM

Req: Can you share its TGI? I mean this compound: O=C(C[n+]1ccc2ccccc2c1)c1ccc2ccc3ccccc3c2c1
Resp: 2.15 µM

Req: Can you share its TGI? I mean this compound: COc1ccc(CC(=O)N2CCC3(C)CC(=O)CC=C23)cc1OC (stereo not given)
Resp: > 100 µM
